B1: FERM and PDZ domain-containing protein 4, residues 75 to 154; numbered along this chain, Q14CM0 (parent)
chain: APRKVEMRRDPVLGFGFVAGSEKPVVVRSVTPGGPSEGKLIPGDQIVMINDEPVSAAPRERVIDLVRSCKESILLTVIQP

# Variants of: B1
# protocol.details: abundance fitness (aPCA) (normalised: wild type 0, dead -1); higher = more abundant; growth selection in yeast, the domain comes from the species named
# test.conditions: Homo sapiens
Would you mind labelling by abundance fitness? At or over -0.2 is yes (1), under is no (0).

   mutant_code    label
0         K70R  yes (1)

Task item: Does the variant E60R have recorded abundance fitness that is -0.2 or more?
Reply: yes (1)

Task item: Does the variant L40Y have recorded abundance fitness that is -0.2 or more?
Reply: no (0)

Task item: Does the variant T31Q have recorded abundance fitness that is -0.2 or more?
Reply: yes (1)

Task item: Does the variant R67D have recorded abundance fitness that is -0.2 or more?
Reply: yes (1)

Task item: Does the variant E37T have recorded abundance fitness that is -0.2 or more?
Reply: yes (1)

Task item: Does the variant D10W have recorded abundance fitness that is -0.2 or more?
Reply: no (0)

Task item: Does the variant P32I have recorded abundance fitness that is -0.2 or more?
Reply: yes (1)

Task item: Does the variant P24D have recorded abundance fitness that is -0.2 or more?
Reply: no (0)

Task item: Does the variant Q45D have recorded abundance fitness that is -0.2 or more?
Reply: no (0)

Task item: Does the variant M48W have recorded abundance fitness that is -0.2 or more?
Reply: yes (1)

Task item: Does the variant L75H have recorded abundance fitness that is -0.2 or more?
Reply: no (0)

Task item: Does the variant P35R have recorded abundance fitness that is -0.2 or more?
Reply: no (0)

Task item: Does the variant G14P have recorded abundance fitness that is -0.2 or more?
Reply: no (0)

Task item: Does the variant V77M have recorded abundance fitness that is -0.2 or more?
Reply: no (0)

Task item: Does the variant G38C have recorded abundance fitness that is -0.2 or more?
Reply: yes (1)

Task item: Does the variant K39S have recorded abundance fitness that is -0.2 or more?
Reply: yes (1)
